target: Induced myeloid leukemia cell differentiation protein Mcl-1 (Homo sapiens); assay: disruptors of Mcl-1 and Noxa BH3 peptide – biochemical, TR-FRET, 1536-well, primary screen (AID 1022); conditions: TR-FRET Mcl-1/Noxa peptide binding, 2 h; at 21.7 µM; stronger effect = higher value;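 further: His-tagged Mcl-1 with rhodamine Noxa BH3 peptide and terbium anti-His antibody; 0% = Mcl-1 plus Noxa peptide wells and 100% = peptide-only wells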
The campaign covered roughly 220,000 compounds. About 3,300 (1.5%) were called active. Many of the other results were omitted from the sample, so actives are more common in it than they were.
Provide the reported inhibition of each item.
# output: bare number, implied unit %

Request: # get_value(readout='inhibition', item= C/C(Cc1ccccc1)=N\NC(=O)CNC(=O)c1ccccc1Cl )
Result: -7.79

Request: Also check CN(C(=O)CCn1c(=S)oc2ccccc21)C1CCCCC1
Result: -15.3

Request: Also check Cc1cc(=O)n2[nH]c(-c3sccc3-n3c(C)ccc3C)cc2n1
Result: 50.6

Request: Also check Cc1ccc(-c2cc(C(=O)NN)n[nH]2)o1
Result: 11.3

Request: Also check COc1ccc(CCNC(=O)C(Sc2ccccn2)c2ccccc2)cc1OC (stereo unspecified)
Result: -11.6

Request: Also check COC(=O)c1cn(C(=O)c2ccc(Cl)cc2)c2ccccc12
Result: -1.27

Request: Also check CCNC(=S)N1CCN(CCN=CC2=C(O)CC(C)(C)CC2=O)CC1
Result: 7.49

Request: Also check O=S(=O)(NCCc1csc(-c2ccccc2)n1)c1cccnc1
Result: -1.4

Request: Also check O=C1CC(Sc2ncn[nH]2)C(=O)N1c1ccccc1 (stereo unspecified)
Result: 54.4

Request: Also check CCc1c(C)nc2cc(-c3cccs3)[nH]n2c1=O
Result: 7.24

Request: Also check Cn1c2c(c(=O)n(C)c1=O)C(c1cccc(F)c1)C(C#N)=C(N)O2 (stereo unspecified)
Result: -5.47

---

biological target: Induced myeloid leukemia cell differentiation protein Mcl-1 (Homo sapiens) (UniProt Q07820); test: disruptors of Mcl-1 and Noxa BH3 peptide – biochemical, TR-FRET, 1536-well, primary screen (AID 1022); conditions: TR-FRET Mcl-1/Noxa peptide binding, 2 h; at 21.7 µM;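 further: His-tagged Mcl-1 with rhodamine Noxa BH3 peptide and terbium anti-His antibody; 0% = Mcl-1 plus Noxa peptide wells and 100% = peptide-only wells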
Sequence (Q07820 whole entry, looked up): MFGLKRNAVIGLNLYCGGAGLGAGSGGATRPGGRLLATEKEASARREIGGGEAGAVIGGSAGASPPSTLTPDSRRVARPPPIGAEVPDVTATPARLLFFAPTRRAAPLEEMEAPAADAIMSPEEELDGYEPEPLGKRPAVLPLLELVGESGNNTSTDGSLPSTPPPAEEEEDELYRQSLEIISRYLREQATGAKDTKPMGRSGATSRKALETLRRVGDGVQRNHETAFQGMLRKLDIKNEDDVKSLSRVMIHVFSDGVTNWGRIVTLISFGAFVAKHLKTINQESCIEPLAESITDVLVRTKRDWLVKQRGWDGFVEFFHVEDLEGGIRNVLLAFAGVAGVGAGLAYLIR
Out of some 220,000 compounds screened, about 3,300 (1.5%) were called active.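 Rule for the calls: active = compounds that cut the protein-peptide binding signal by more than 50% relative to plate controls in a single-dose test; inactive = the rest.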 What follows is part of a selection rich in actives, with near analogues and random picks from the rest.
Use one of these outcomes when replying: true (active), false (inactive)

Request: Hello, I am checking results. What call was entered for O=C(O)CC12CC3CC(C1)CC(n1ncc(NCc4ccc(F)cc4)c(Cl)c1=O)(C3)C2 ?
Result: false

Request: Also check Cc1nc2c(ncn2-c2ccccc2)c(=O)n1NC(=O)CN1CCCC1
Result: false

Request: Also check CSc1ccc(NC(=O)/C=C/C(=O)O)cc1
Result: false

Request: Also check O=C(NCCc1c[nH]c2ccc(Cl)cc12)c1ccc([N+](=O)[O-])cc1
Result: false

Request: Also check C=C(C)CNC(=S)Nc1ccc(S(=O)(=O)Nc2cnc3ccccc3n2)cc1
Result: false

Request: Also check Brc1ccc2c(c1)[C@H]1OCC[C@H]1[C@@H](c1cccs1)N2
Result: false

Request: Also check C=C(C)COc1ccc(-c2nc(N)ncc2-c2ccccc2OC)c(O)c1
Result: false

Request: Also check O=C(Nc1cccnc1)c1ccc(Cl)c([N+](=O)[O-])c1
Result: false

Request: Also check CN(C)c1ccc(/C=N/N(Cc2ccccc2)c2ccccc2)cc1
Result: true

Request: Also check Nc1ncc(-c2cc3ccccc3oc2=O)s1
Result: false

Request: Also check O=C(CCn1nnc2ccccc2c1=O)N[C@@H](Cc1c[nH]c2ccccc12)C(=O)O
Result: false

Request: Also check Cc1cc(C(=O)NNC(=O)c2cccc(S(=O)(=O)N3CCOCC3)c2)c2ccccc2n1
Result: true

Request: Also check O=C(OCC1O[C@@H](OC(=O)c2cc(O)c(O)c(O)c2)[C@@H](OC(=O)c2cc(O)c(O)c(O)c2)[C@@H](OC(=O)c2cc(O)c(O)c(O)c2)[C@@H]1OC(=O)c1cc(O)c(O)c(O)c1)c1cc(O)c(O)c(O)c1 (stereo partly drawn)
Result: true

Request: Also check O=C(CCc1ccccc1)Nc1cccc(-c2nnc(-c3ccco3)o2)c1
Result: false

Request: Also check CC(=O)NC1C(OCc2ccccc2)OC(COC(C)=O)C(OC(C)=O)C1OC(C)=O (stereo not drawn)
Result: false

Request: Also check O=C1Oc2ccccc2C(=O)/C1=C/c1ccccc1O
Result: true

Request: Also check O=C(NC(=O)N1CCSCC1)c1c(Cl)cccc1Cl
Result: false

Request: Also check NNC(=O)c1oc2nc(-c3ccccc3)cc(-c3ccco3)c2c1N
Result: true

Request: Also check COC(=O)Cc1nc2ccccc2[nH]1
Result: false

Request: Also check O=C(Nc1ccc(S(=O)(=O)Nc2nccs2)cc1)c1cc(-c2ccncc2)nc2ccccc12
Result: true

Request: Also check COc1ccc(-c2ccc(OC(=O)NC3CCS(=O)(=O)C3)cc2)cc1 (stereo not drawn)
Result: false

Request: Also check O=C(NNC(=S)Nc1ccccc1)c1cccc(S(=O)(=O)N2CCOCC2)c1
Result: false

Request: Also check CCN(CC)c1ccc(NC(=O)C2CCC(CNc3c(N4CCCC4)c(=O)c3=O)CC2)c(C)c1 (stereo not drawn)
Result: false

Request: Also check CCN(/N=C/c1ccccc1)c1cc(=O)n(C)c(=O)[nH]1
Result: false

Request: Also check Cc1onc(-c2ccccc2)c1C(=O)N=C(N)c1ccc(Cl)cc1
Result: false

Request: Also check CC(=O)Nc1cccc(C(=O)Nc2nc(C)cs2)c1
Result: false

Request: Also check CCN(CC)CCN(C(=O)c1cccc([N+](=O)[O-])c1)c1nc2ccc(OC)cc2s1
Result: false

Request: Also check O=C(NCc1ccco1)c1nc(-c2ccccc2)n(-c2ccccc2)n1
Result: false

Request: Also check CCCCCCCN=C(C)c1ccccc1O
Result: false

Request: Also check C/C=C(/C)C(=O)Nc1cccc(C2=NOC3(C2)C[C@@H](C(N)=O)N(C(=O)C2(C)CC2)C3)c1 (stereo partly drawn)
Result: false

Request: Also check COc1cc(/C=N\Nc2nc(-c3cccs3)c(NC(C)=O)s2)ccc1O
Result: true

Request: Also check O=C(COc1ccccc1[N+](=O)[O-])NC1CC1
Result: false

Request: Also check Oc1ccc(/C=N/N(Cc2ccccc2)c2ccccc2)cc1
Result: false

Request: Also check Cc1cc(C(=O)Nc2ccccc2N2CCOCC2)c2ccccc2n1
Result: false

Request: Also check O=C(Nc1ccc(S(=O)(=O)Nc2nccs2)cc1)c1cc(=O)[nH]c2ccccc12
Result: false

Request: Also check Cc1nnc(N/N=C/c2cccs2)[nH]c1=O
Result: false

Request: Also check CCN(CC)C(=O)C(=O)Nc1cccc(Br)c1
Result: false

Request: Also check O=C(/C=C/c1ccc(Cl)c([N+](=O)[O-])c1)c1ccc(O)cc1
Result: false

Request: Also check O=C(O)CC1(CC(=O)Nc2cccc(C(F)(F)F)c2)CCCC1
Result: false

Request: Also check COc1ccc(C)cc1Nc1nc(-c2c(C)[nH]c3ccccc23)cs1
Result: false

Request: Also check COc1ccc(Nc2nc(-c3ccccc3)cs2)cc1
Result: false

Request: Also check CCOC(=O)c1sc2nc(CSc3ccccc3)[nH]c(=O)c2c1C
Result: false

Request: Also check CC(=O)NC(=S)Nc1ccc(NC(=O)c2cccnc2)cc1
Result: false

---

molecular target: Induced myeloid leukemia cell differentiation protein Mcl-1 (Homo sapiens) (UniProt Q07820); assay: disruptors of Mcl-1 and Noxa BH3 peptide – biochemical, TR-FRET, 1536-well, primary screen (AID 1022); settings: TR-FRET Mcl-1/Noxa peptide binding, 2 h; at 21.7 µM; stronger effect = higher value;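 further: His-tagged Mcl-1 with rhodamine Noxa BH3 peptide and terbium anti-His antibody; 0% = Mcl-1 plus Noxa peptide wells and 100% = peptide-only wells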
Screen size: about 220,000 compounds; about 3,300 (1.5%) were called active. The sample holds actives, similar compounds and a random draw of the others, so the mix is not that of the screen.
metric-name: inhibition (%)
# output: bare number, implied unit %

Request: # get_value(readout='inhibition', item= CC(C)(C)c1cc(NC(=O)NN2CCOCC2)nn1-c1c(Cl)cc(Cl)cc1Cl )
Result: 2.67

Request: Also check Oc1ccc(N=Nc2nccs2)c(O)c1
Result: -33.2

Request: Also check O=S(=O)(c1cccc(-c2nnc3n2CCCCC3)c1)N1CCOCC1
Result: 3.07

Request: Also check Cc1cnc(NC(=O)Cn2cnc3c2c(=O)n(C)c(=O)n3C)s1
Result: 3.66

Request: Also check C#CCO[C@@H]1C[C@H](n2cnc3c(=O)[nH]c(NC(=O)C(C)C)nc32)O[C@@H]1CO
Result: -275

Request: Also check Cc1ccc(NC(=O)COC(=O)CCc2nc3ccccc3n2-c2ccccc2)c(C)c1
Result: 4.37

Request: Also check O=C(C1=C(O)C(=O)N(Cc2ccccc2)C1c1ccco1)c1ccco1 (stereo not drawn)
Result: 24.5

Request: Also check CCN(c1ccc(NC(=O)COC(=O)CCc2nc3ccccc3n2-c2ccccc2)cc1)C(C)C
Result: 79.3

Request: Also check CN(C)NC(=O)c1csnc1-c1c(Cl)cccc1Cl
Result: 8.82

Request: Also check CN(C(=O)Nc1ccc(Cl)cc1)n1cnc2ccccc2c1=O
Result: -0.02

Request: Also check CC(C)Oc1ccc(CCC(=O)NNC(=S)NCc2ccccc2)cc1
Result: 0.21

Request: Also check CCCCCn1c(=O)c(C(=O)OCC)c(Cl)c2ccccc21
Result: -2.04

Request: Also check Cn1nccc1NC(=O)CC(CC(=O)O)c1ccccc1 (stereo not drawn)
Result: -13

Request: Also check O=C1N(c2ccccc2)C(=Nc2ccccc2)SC12CC2
Result: 1.01

Request: Also check Cc1cc(N2CCN(c3ccc(F)cc3)CC2)n2ncnc2n1
Result: -1.64

Request: Also check NC(=O)c1ccc(NC(=O)COC(=O)c2ccc([N+](=O)[O-])cc2)cc1
Result: -10.3

Request: Also check O=C(Nc1ccc(N2CCOCC2)nc1)c1c(F)cccc1F
Result: 25.6

Request: Also check O=[N+]([O-])C(=c1ccc2c(c1)N1C3=C(CCCC3)CC3CCCCC31N=2)[N+](=O)[O-] (stereo not drawn)
Result: 99.2

Request: Also check Cc1cc2c(cc1C)N(Cc1ccccc1)C1=NCCCN12
Result: -4.28

Request: Also check CCc1cc(C(=O)c2ccc(OC)cc2)c(NC(=O)CN2CCN(C)CC2)s1
Result: 0.41

Request: Also check O=C(C1=C(O)C(=O)N(CCOCCO)C1c1ccccn1)c1cccs1 (stereo not drawn)
Result: 11.8

Request: Also check Cn1c2ccccc2c(=O)c2c(=O)n(Cc3ccco3)c(COc3ccccc3)nc21
Result: 60

Request: Also check CCO[C@@H]1OC(C(=O)NC2CC2)=C[C@H](C)[C@H]1CCCO
Result: -4.75
